target: GlcNAc(a1-4)Gal(b1-4)GlcNAc(b1-3)Gal(b1-4)[Fuc(a1-3)]GlcNAc(b1-3)Gal(b1-4)[Fuc(a1-3)]GlcNAc
test: glycan array binding signal (z-score within array); higher = stronger binding
measurement_context: glycan notation: IUPAC condensed, linker removed
Shown is part of a subset that was picked to be rich in the strongest signals.
measurement_name: glycan array binding signal (z-score)

Lab note: measured glycan array binding signal (z-score) of SSA (Sclerotinia sclerotiorum), A7XUK7 (protein) MGFKGVGTYEIVPYQAPSLNLNAWEGKLEPGAVVRTYTRGDKPSDNAKWQVALVAGSGDSAEYLIINVHSGYFLTATKENHIVSTPQISPTDPSARWTIKPATTHQYEVFTINNKVSELGQLTVKDYSTHSGADVLSASAKTADNQKWYFDAK was 0.158

Then this binder:
The reported value for FimA-N1 (Actinomyces oris) (protein) MHHHHHHSSGVDLGTENLYFQSNATETPNYGNIKTDATGSLVIHKHLTGGGKDIGTPTGTAQNADDKGPAVEGVVFTAYPITDINLKDPAGWDTISNLSRTGVPDSACANPAAPTLGAHQFGTPKVSPATTKEGLATITEMPVQAYLVCETTTPGDIVQKAKPFVVTIPHPNTAAGADGQWIYDVNVYPKNEAIDVDKTIQAQK in terms of glycan array binding signal (z-score) is 0.476
